Origin of the recorded values: ChEMBL document CHEMBL3399918

- Tested on: MCF7
- assay.details: Cytotoxicity against human MCF7 cells after 72 hrs by MTT assay
- Type: functional
- condition.description: MCF7, 72 h
recorded.metric: TGI

These recorded examples may help you get a feel for the data.
>  <molecule>
N#C[Se]c1ccc(NC(=O)OCc2ccc([N+](=O)[O-])cc2)cc1

>  <TGI>
40.7 µM

$$$$
>  <molecule>
CC(C)COC(=O)Nc1ccc([Se][Se]c2ccc(NC(=O)OCC(C)C)cc2)cc1

>  <TGI>
49.7 µM

$$$$
>  <molecule>
CC(C)COC(=O)Nc1ccc([Se]C#N)cc1

>  <TGI>
45.5 µM

$$$$

Input N#C[Se]c1ccc(NC(=O)Oc2ccc(Cl)cc2)cc1 . Output TGI: 26.3 µM

Input Cc1ccc(OC(=O)Nc2ccc([Se][Se]c3ccc(NC(=O)Oc4ccc(C)cc4)cc3)cc2)cc1 . Output TGI: 37.7 µM

Input N#C[Se]c1ccc(NC(=O)OCC2=Cc3ccccc3S2(=O)=O)cc1 . Output TGI: 34.9 µM

Input CCOC(=O)Nc1ccc([Se][Se]c2ccc(NC(=O)OCC)cc2)cc1 . Output TGI: 39 µM

Input N#C[Se]c1ccc(NC(=O)OCc2ccccc2)cc1 . Output TGI: 38.8 µM

Input CCCOC(=O)Nc1ccc([Se]C#N)cc1 . Output TGI: 34.4 µM

---

Below, each entry is listed with its recorded TGI.
- System: HT-29
- assay.details: Cytotoxicity against human HT-29 cells after 72 hrs by MTT assay
- Assay type: functional
- condition.description: HT-29, 72 h
Please give the number followed by its unit.

These recorded examples may help you get a feel for the data.
>  <smiles.repr>
N#C[Se]c1ccc(NC(=O)OCC2c3ccccc3-c3ccccc32)cc1

>  <TGI>
42.8 µM

$$$$
>  <smiles.repr>
CCCCCCOC(=O)Nc1ccc([Se]C#N)cc1

>  <TGI>
40.3 µM

$$$$
>  <smiles.repr>
CC(C)COC(=O)Nc1ccc([Se]C#N)cc1

>  <TGI>
31.3 µM

$$$$
>  <smiles.repr>
N#C[Se]c1ccc(NC(=O)Oc2ccccc2)cc1

>  <TGI>
41.7 µM

$$$$
>  <smiles.repr>
C=CCOC(=O)Nc1ccc([Se][Se]c2ccc(NC(=O)OCC=C)cc2)cc1

>  <TGI>
52.7 µM

$$$$
>  <smiles.repr>
O=C(Nc1ccc([Se][Se]c2ccc(NC(=O)OCc3ccccc3)cc2)cc1)OCc1ccccc1

>  <TGI>
35.4 µM

$$$$
>  <smiles.repr>
O=C(Nc1ccc([Se][Se]c2ccc(NC(=O)OCc3ccc([N+](=O)[O-])cc3)cc2)cc1)OCc1ccc([N+](=O)[O-])cc1

>  <TGI>
46.3 µM

$$$$
>  <smiles.repr>
CCOC(=O)Nc1ccc([Se][Se]c2ccc(NC(=O)OCC)cc2)cc1

>  <TGI>
51.1 µM

$$$$

Input CCCCCCOC(=O)Nc1ccc([Se][Se]c2ccc(NC(=O)OCCCCCC)cc2)cc1 . Output TGI: 42.6 µM

Input N#C[Se]c1ccc(NC(=O)OCC2=Cc3ccccc3S2(=O)=O)cc1 . Output TGI: 50.2 µM

Input CCOC(=O)Nc1ccc([Se]C#N)cc1 . Output TGI: 38 µM

---

- assay.details: Cytotoxicity against human 184B5 cells after 72 hrs by MTT assay
- Assay type: cell-based
- condition.description: 184b5, 72 h
Tag: MET if measured TGI is not below 20 µM, NOT MET if it is.

Some solved cases for reference:
>  <smiles.repr>
CC(C)COC(=O)Nc1ccc([Se]C#N)cc1

>  <class>
MET

$$$$
>  <smiles.repr>
O=C(Nc1ccc([Se][Se]c2ccc(NC(=O)OCc3ccccc3)cc2)cc1)OCc1ccccc1

>  <class>
NOT MET

$$$$
>  <smiles.repr>
C=CCOC(=O)Nc1ccc([Se][Se]c2ccc(NC(=O)OCC=C)cc2)cc1

>  <class>
MET

$$$$
>  <smiles.repr>
CCOC(=O)Nc1ccc([Se]C#N)cc1

>  <class>
NOT MET

$$$$
>  <smiles.repr>
COc1ccc(OC(=O)Nc2ccc([Se]C#N)cc2)cc1

>  <class>
NOT MET

$$$$
>  <smiles.repr>
N#C[Se]c1ccc(NC(=O)Oc2ccccc2)cc1

>  <class>
MET

$$$$
>  <smiles.repr>
C=CCOC(=O)Nc1ccc([Se]C#N)cc1

>  <class>
NOT MET

$$$$
>  <smiles.repr>
N#C[Se]c1ccc(NC(=O)Oc2ccc(F)cc2)cc1

>  <class>
MET

$$$$

Now examine the next entry.
Hi, just wondering whether N#C[Se]c1ccc(NC(=O)OCc2ccccc2)cc1 shows TGI of 20 µM or higher.
MET

---

Below, each entry is listed with its recorded GI50 at 72 h.
- assay.details: Cytotoxicity against human 184B5 cells after 72 hrs by MTT assay
- Type: cell-based
- condition.description: 184B5 cells
# output: bare number, implied unit µM

These recorded examples may help you get a feel for the data.
>  <smiles.repr>
O=C(Nc1ccc([Se][Se]c2ccc(NC(=O)Oc3ccc(Cl)cc3)cc2)cc1)Oc1ccc(Cl)cc1

>  <unit.symbol>
µM

>  <result>
2.5

$$$$
>  <smiles.repr>
Cc1ccc(OC(=O)Nc2ccc([Se]C#N)cc2)cc1

>  <unit.symbol>
µM

>  <result>
4.4

$$$$
>  <smiles.repr>
C=CCOC(=O)Nc1ccc([Se][Se]c2ccc(NC(=O)OCC=C)cc2)cc1

>  <unit.symbol>
µM

>  <result>
6.4

$$$$
>  <smiles.repr>
N#C[Se]c1ccc(NC(=O)OCc2ccccc2)cc1

>  <unit.symbol>
µM

>  <result>
5

$$$$
>  <smiles.repr>
N#C[Se]c1ccc(NC(=O)OCC2c3ccccc3-c3ccccc32)cc1

>  <unit.symbol>
µM

>  <result>
5.5

$$$$

Input CCCCCCOC(=O)Nc1ccc([Se]C#N)cc1 . Output GI50 at 72 h: 4.6

Input CCCOC(=O)Nc1ccc([Se]C#N)cc1 . Output GI50 at 72 h: 3.7

Input O=C(Nc1ccc([Se][Se]c2ccc(NC(=O)Oc3ccc(F)cc3)cc2)cc1)Oc1ccc(F)cc1 . Output GI50 at 72 h: 3.7

---

- assay.details: Cytotoxicity against human BEAS2B cells after 72 hrs by MTT assay
- Format: cell-based, BEAS-2B
- condition.description: beas-2b, 72 h
So basically: is TGI under 40 µM? Then T. Not under? Then F.

>  <smiles.repr>
O=C(Nc1ccc([Se][Se]c2ccc(NC(=O)OCC3=Cc4ccccc4S3(=O)=O)cc2)cc1)OCC1=Cc2ccccc2S1(=O)=O

>  <class>
T

$$$$
>  <smiles.repr>
CCCOC(=O)Nc1ccc([Se][Se]c2ccc(NC(=O)OCCC)cc2)cc1

>  <class>
F

$$$$
>  <smiles.repr>
CCOC(=O)Nc1ccc([Se][Se]c2ccc(NC(=O)OCC)cc2)cc1

>  <class>
F

$$$$

A record lists CCCCCCOC(=O)Nc1ccc([Se]C#N)cc1 . Is its TGI below 40 µM?
T

A record lists C=CCOC(=O)Nc1ccc([Se]C#N)cc1 . Is its TGI below 40 µM?
F

---

- assay.details: Cytotoxicity against human PC3 cells after 72 hrs by MTT assay
- Assay type: functional
- condition.description: PC-3, 72 h
recorded.metric: GI50 (µM)
# output: bare number, implied unit µM

These recorded examples may help you get a feel for the data.
>  <smiles.repr>
CCCCCCOC(=O)Nc1ccc([Se]C#N)cc1

>  <GI50, µM>
17.3

$$$$
>  <smiles.repr>
N#C[Se]c1ccc(NC(=O)OCc2ccc([N+](=O)[O-])cc2)cc1

>  <GI50, µM>
9

$$$$
>  <smiles.repr>
CC(C)COC(=O)Nc1ccc([Se]C#N)cc1

>  <GI50, µM>
21.6

$$$$
>  <smiles.repr>
O=C(Nc1ccc([Se][Se]c2ccc(NC(=O)OCC3=Cc4ccccc4S3(=O)=O)cc2)cc1)OCC1=Cc2ccccc2S1(=O)=O

>  <GI50, µM>
3.8

$$$$

Input O=C(Nc1ccc([Se][Se]c2ccc(NC(=O)OCc3ccc([N+](=O)[O-])cc3)cc2)cc1)OCc1ccc([N+](=O)[O-])cc1 . Output GI50: 6.4

---

Below, each entry is listed with its recorded GI50.
- Test system: HT-29
- assay.details: Cytotoxicity against human HT-29 cells after 72 hrs by MTT assay
- Assay type: functional
- condition.description: HT-29, 72 h
# output: bare number, implied unit µM

>  <compound>
CC(C)COC(=O)Nc1ccc([Se]C#N)cc1

>  <GI50 (µM)>
8.1

$$$$
>  <compound>
O=C(Nc1ccc([Se][Se]c2ccc(NC(=O)Oc3ccc(F)cc3)cc2)cc1)Oc1ccc(F)cc1

>  <GI50 (µM)>
18.5

$$$$
>  <compound>
CCCCCCOC(=O)Nc1ccc([Se][Se]c2ccc(NC(=O)OCCCCCC)cc2)cc1

>  <GI50 (µM)>
11

$$$$

Now, please, on to the next compound.
Input COc1cc([C@@H]2c3cc4c(cc3[C@@H](O[C@@H]3O[C@@H]5CO[C@@H](C)O[C@H]5[C@H](O)[C@H]3O)[C@H]3COC(=O)[C@H]23)OCO4)cc(OC)c1O [ETOPOSIDE] . Output GI50: 31.6
